Reference for the values: patent US9370522B2

Target: hPASK Kinase Domain (Homo sapiens, UniProt Q96RG2)
Construct: made in house; host or cells: insect cells
Sequence (Q96RG2 999-1251 limits assumed): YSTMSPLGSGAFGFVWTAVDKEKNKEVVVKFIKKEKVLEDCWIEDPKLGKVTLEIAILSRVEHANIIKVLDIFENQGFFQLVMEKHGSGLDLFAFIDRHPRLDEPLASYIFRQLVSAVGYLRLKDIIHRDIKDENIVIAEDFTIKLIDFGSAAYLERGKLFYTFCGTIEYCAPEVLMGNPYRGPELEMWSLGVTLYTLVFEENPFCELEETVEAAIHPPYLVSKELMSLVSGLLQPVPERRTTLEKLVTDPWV
Test: Biochemical Assay for hPASK Activity (Kinase-Glo Luminescent Kinase Assay), kinase domain
Settings: Table 1, second part (Examples 33-59)
IC50 overview

Some solved entries appear below for comparison.
{"lineNotation": "COc1ccc(-c2nc3ccc(S(=O)(=O)N4CCOCC4)cc3nc2-c2ccc(OC)cc2)cc1", "result": "≤ 10 µM"}
{"lineNotation": "COc1ccc(-c2nc3ccc(/C=C/C(=O)O)cc3nc2-c2ccc(OC)cc2)cc1", "result": "≥ 10 µM"}

I'd like to know its IC50. The compound in question is COc1ccc(-c2nc3ccc(S(N)(=O)=O)cc3nc2-c2ccc(OC)cc2)cc1
≤ 10 µM

I'd like to know its IC50. The compound in question is O=C(O)c1cccc(-c2nc3cc(C(=O)O)ccc3nc2-c2ccccc2)c1
≤ 10 µM

I'd like to know its IC50. The compound in question is CC(C)S(=O)(=O)Nc1ccc(-c2nc3cc(C(=O)O)ccc3nc2-c2ccccc2)cc1
≤ 10 µM

I'd like to know its IC50. The compound in question is CC(C)(C)c1ccc(-c2nc3cc(C(=O)O)ccc3nc2-c2ccccc2)cc1
≤ 10 µM

###

IC50 overview
Target: hPASK Kinase Domain (Homo sapiens)
Construct: made in house; host or cells: insect cells
Test: Biochemical Assay for hPASK Activity (Kinase-Glo Luminescent Kinase Assay), kinase domain
Conditions: Table 1, first part

Some solved entries appear below for comparison.
{"lineNotation": "O=C(O)c1ccc2nc(-c3ccccc3)c(-c3ccccc3)nc2c1", "measureName": "IC50", "result": "≤ 10 µM"}
{"lineNotation": "Cc1nc2cc(C(=O)O)c(O)cc2nc1-c1ccccc1", "measureName": "IC50", "result": "≥ 10 µM"}
{"lineNotation": "O=C(O)c1ccc2nc(-c3ccco3)c(-c3ccco3)nc2c1", "measureName": "IC50", "result": "≤ 10 µM"}
{"lineNotation": "O=C(O)c1ccc2nc(-c3cccc(O)c3)c(-c3cccc(O)c3)nc2c1", "measureName": "IC50", "result": "≤ 10 µM"}
{"lineNotation": "O=C(O)c1cc2nc(-c3ccc4c(c3)OCO4)c(-c3ccc4c(c3)OCO4)nc2cc1O", "measureName": "IC50", "result": "≤ 10 µM"}
{"lineNotation": "O=C(O)c1ccc2nc(-c3ccc(F)cc3)c(-c3ccc(F)cc3)nc2c1", "measureName": "IC50", "result": "≥ 10 µM"}

I'd like to know its IC50. The molecule in question is CCOc1ccc(-c2nc3ccc(C(=O)O)cc3nc2-c2ccc(OCC)cc2)cc1
≥ 10 µM

I'd like to know its IC50. The molecule in question is Cc1ccc(-c2nc3ccc(C(=O)O)cc3nc2-c2ccc(C)cc2)cc1
≥ 10 µM

I'd like to know its IC50. The molecule in question is COc1ccc(-c2nc3ccc(C(=O)O)cc3nc2-c2ccc(OC)c(OC)c2)cc1OC
≥ 10 µM

I'd like to know its IC50. The molecule in question is O=C(O)c1ccc2nc(-c3ccccc3O)c(-c3ccccc3O)nc2c1
≤ 10 µM

###

Target: PASK (UniProt #Q96RG2; human recombinant N-terminal GST tagged construct, residues 879-1323) (Homo sapiens, UniProt Q96RG2)
Construct: N-terminal GST tagged construct, residues 879-1323; GST (N)
Sequence (Q96RG2 879-1323, change not shown): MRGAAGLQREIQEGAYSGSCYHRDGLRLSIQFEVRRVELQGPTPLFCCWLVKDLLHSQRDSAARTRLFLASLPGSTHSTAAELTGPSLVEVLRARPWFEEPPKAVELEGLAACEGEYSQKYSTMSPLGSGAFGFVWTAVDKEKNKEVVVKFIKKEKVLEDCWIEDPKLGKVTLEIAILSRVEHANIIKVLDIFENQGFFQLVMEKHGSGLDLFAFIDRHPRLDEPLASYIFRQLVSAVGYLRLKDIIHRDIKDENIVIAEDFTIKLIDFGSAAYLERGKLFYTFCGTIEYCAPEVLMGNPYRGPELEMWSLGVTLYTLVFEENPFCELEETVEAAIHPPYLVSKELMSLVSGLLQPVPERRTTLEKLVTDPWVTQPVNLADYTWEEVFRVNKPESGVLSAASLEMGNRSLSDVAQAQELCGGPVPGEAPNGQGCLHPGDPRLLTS
Assay: 33P-ATP radiometric PASK kinase assay (P81 phosphocellulose, scintillation counting)
Conditions: Table 2, Myelin Basic Protein 20 μM, 120 min room temperature, average of all trials, read-out: IC50 Kinase Domain
Procedure: Purified PASK (UniProt #Q96RG2; human recombinant N-terminal GST tagged construct, residues 879-1323) from insect cells (final concentration 5 nM) is added to freshly prepared Base Reaction Buffer containing 20 mM Hepes (pH 7.5), 10 mM MgCl2, 1 mM EGTA, 0.02% Brij35, 0.02 mg/ml BSA, 0.1 mM Na3VO4, 2 mM DTT, 1% DMSO and Myelin Basic Protein (20 μM final). […]
IC50 overview

Some solved entries appear below for comparison.
{"lineNotation": "CCc1ccc(-c2nc3cc(C(=O)O)ccc3nc2-c2ccccc2)cc1", "result": "≤ 10 µM"}
{"lineNotation": "COc1ccc(-c2nc3cc(C(=O)O)ccc3nc2-c2ccccc2)cc1OC", "result": "≤ 10 µM"}
{"lineNotation": "Cc1nc2cc(C(=O)O)ccc2nc1-c1ccccc1", "result": "≥ 10 µM"}
{"lineNotation": "O=C(O)c1cc2nc(-c3ccc(Cl)cc3)c(-c3ccc(Cl)cc3)nc2cc1O", "result": "≥ 10 µM"}

I'd like to know its IC50. The compound in question is O=C(O)c1ccc2nc(-c3ccco3)c(-c3ccccc3)nc2c1
≤ 10 µM

I'd like to know its IC50. The compound in question is O=C(O)c1ccc2nc(-c3ccccc3)c(-c3ccc(C(F)(F)F)cc3)nc2c1
≤ 10 µM

I'd like to know its IC50. The compound in question is O=C(O)c1cc2nc(-c3cccc(O)c3)c(-c3cccc(O)c3)nc2cc1O
≥ 10 µM

I'd like to know its IC50. The compound in question is O=C(O)c1ccc2nc(-c3ccccc3)c(-c3ccc(Br)cc3)nc2c1
≤ 10 µM

I'd like to know its IC50. The compound in question is O=C(O)c1ccc2nc(-c3ccccc3)c(-c3ccc4ccccc4c3)nc2c1
≤ 10 µM
